# target_desc: GST-Bcl-XL (UniProt Q07817-1 1-233)
# Sequence (Q07817 whole entry): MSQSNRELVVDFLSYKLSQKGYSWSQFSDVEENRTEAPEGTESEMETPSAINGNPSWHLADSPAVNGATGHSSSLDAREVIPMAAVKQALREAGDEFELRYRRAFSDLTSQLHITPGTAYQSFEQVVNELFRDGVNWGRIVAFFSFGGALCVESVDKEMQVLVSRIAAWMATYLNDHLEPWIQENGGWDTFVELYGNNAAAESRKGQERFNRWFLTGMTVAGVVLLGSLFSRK
# test_description: fluorescence polarisation
No end group written: not given here.
reported_endpoint: pKd
# pKd = -log10(concentration in molar units)

Prompt: Look at this binder and give its reported pKd. VHLTLRQAGDDFSRR (also: F5M-labelled Cys, position not given here) [F5M-Bcl-2 BH3 peptide]
Response: 6.84
